Origin of the recorded values: paper PMC11480844

B1: H2-Kb / F4 (parent complex)
chain 1: QQQVRQSPQSLTVWEGETAILNCSYEDSTFNYFPWYQQFPGEGPALLISIRSVSDKKEDGRFTIFFNKREKKLSLHITDSQPGDSATYFCAAMSNYNVLYFGSGTKLTVEP
chain 2: ETAVFQTPNYHVTQVGNEVSFNCKQTLGHDTMYWYKQDSKKLLKIMFSYNNKQLIVNETVPRRFSPQSSDKAHLNLRIKSVEPEDSAVYLCASSARQNSPLYFAAGTRLTVT
chain 3: not shown
chain 4: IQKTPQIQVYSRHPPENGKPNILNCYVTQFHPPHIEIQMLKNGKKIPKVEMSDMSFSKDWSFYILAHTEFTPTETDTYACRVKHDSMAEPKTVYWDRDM
chain 5: SIINFEKL

# Variants of: B1
# test summary: % of reporter cells activated (NFAT-GFP), raw; also: test concentration or dose not given here
measurement label: ratio to parent

ratio to parent measured on chain 5 I2Y = 0.108

ratio to parent measured on chain 5 F5I = 1.36

ratio to parent measured on chain 5 S1I = 0.0174

ratio to parent measured on chain 5 E6M = 0.0214

ratio to parent measured on chain 5 K7W = 0.517

ratio to parent measured on chain 5 L8Y = 0.898

ratio to parent measured on chain 5 L8N = 0.47

ratio to parent measured on chain 5 S1A = 0.0272

ratio to parent measured on chain 5 F5V = 1.38

ratio to parent measured on chain 5 K7Q = 0.417
